# target desc: human NTPDase8 (Homo sapiens, UniProt Q5MY95)
# Construct: expressed in transfected cells; host or cells: COS-7 cells (membrane preparation)
# Sequence (Q5MY95 whole entry): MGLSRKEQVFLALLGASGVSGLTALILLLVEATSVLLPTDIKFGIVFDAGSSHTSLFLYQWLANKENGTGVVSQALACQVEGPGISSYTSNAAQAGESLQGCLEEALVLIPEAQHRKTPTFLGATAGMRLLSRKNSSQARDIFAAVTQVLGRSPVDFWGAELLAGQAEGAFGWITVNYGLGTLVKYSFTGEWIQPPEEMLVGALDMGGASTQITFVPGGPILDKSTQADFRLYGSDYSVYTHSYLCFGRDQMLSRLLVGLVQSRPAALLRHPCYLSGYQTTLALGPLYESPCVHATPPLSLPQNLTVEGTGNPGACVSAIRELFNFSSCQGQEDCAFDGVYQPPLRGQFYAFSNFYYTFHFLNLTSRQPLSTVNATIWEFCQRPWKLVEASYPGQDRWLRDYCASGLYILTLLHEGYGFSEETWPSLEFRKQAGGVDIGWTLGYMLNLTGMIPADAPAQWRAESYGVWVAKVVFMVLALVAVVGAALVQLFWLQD
# method description: Malachite green assay, human NTPDase8
# Format: biochemical
# run conditions: 2 μM compound; 100 µM ATP; COS-7 membrane preparation; read-out: % inhibition at 2 μM concentration, NTPDase8
Recorded inhibition at 2 µM for the following compounds
readout kind: inhibition at 2 µM

[[record]]
compound = "COc1cccc(Nc2cc(C)c(N)c3c2C(=O)c2ccccc2C3=O)c1 [Compound 55]"
recorded_result = "-2%"

[[record]]
compound = "Nc1c(S(=O)(=O)O)cc(Nc2ccc3ccccc3c2)c2c1C(=O)c1ccccc1C2=O [Compound 18]"
recorded_result = "3%"

[[record]]
compound = "Cc1cc(Nc2cccc(F)c2)c2c(c1N)C(=O)c1ccccc1C2=O [Compound 54]"
recorded_result = "-2%"

[[record]]
compound = "Nc1c(S(=O)(=O)O)cc(Nc2ccc3cc(C(=O)O)ccc3c2)c2c1C(=O)c1ccccc1C2=O [Compound 19]"
recorded_result = "-35%"

[[record]]
compound = "Nc1c(S(=O)(=O)O)cc(Nc2cc3ccccc3c3ccccc23)c2c1C(=O)c1ccccc1C2=O [Compound 20]"
recorded_result = "6%"

[[record]]
compound = "Nc1c(S(=O)(=O)[O-])cc(Nc2ccc(O)cc2F)c2c1C(=O)c1ccccc1C2=O.[Na+] [Compound 37]"
recorded_result = "-6%"

[[record]]
compound = "Cc1ccc2ccccc2c1Nc1cc(S(=O)(=O)O)c(N)c2c1C(=O)c1ccccc1C2=O [Compound 16]"
recorded_result = "3%"

[[record]]
compound = "Nc1c(S(=O)(=O)[O-])cc(Nc2ccc(Sc3ccc(Cl)cc3)cc2)c2c1C(=O)c1ccccc1C2=O.[Na+] [Compound 45]"
recorded_result = "21%"

[[record]]
compound = "CCc1cccc(Nc2cc(C)c(N)c3c2C(=O)c2ccccc2C3=O)c1 [Compound 56]"
recorded_result = "-3%"

[[record]]
compound = "Nc1c(S(=O)(=O)[O-])cc(Nc2cccc(CC(=O)O)c2)c2c1C(=O)c1ccccc1C2=O.[Na+] [Compound 30]"
recorded_result = "-11%"


---

Property: inhibition at 2 µM; scope: individual compounds
# target desc: human NTPDase3 (Homo sapiens, UniProt O75355)
# Construct: expressed in transfected cells; host or cells: COS-7 cells (membrane preparation)
# Sequence (O75355 whole entry): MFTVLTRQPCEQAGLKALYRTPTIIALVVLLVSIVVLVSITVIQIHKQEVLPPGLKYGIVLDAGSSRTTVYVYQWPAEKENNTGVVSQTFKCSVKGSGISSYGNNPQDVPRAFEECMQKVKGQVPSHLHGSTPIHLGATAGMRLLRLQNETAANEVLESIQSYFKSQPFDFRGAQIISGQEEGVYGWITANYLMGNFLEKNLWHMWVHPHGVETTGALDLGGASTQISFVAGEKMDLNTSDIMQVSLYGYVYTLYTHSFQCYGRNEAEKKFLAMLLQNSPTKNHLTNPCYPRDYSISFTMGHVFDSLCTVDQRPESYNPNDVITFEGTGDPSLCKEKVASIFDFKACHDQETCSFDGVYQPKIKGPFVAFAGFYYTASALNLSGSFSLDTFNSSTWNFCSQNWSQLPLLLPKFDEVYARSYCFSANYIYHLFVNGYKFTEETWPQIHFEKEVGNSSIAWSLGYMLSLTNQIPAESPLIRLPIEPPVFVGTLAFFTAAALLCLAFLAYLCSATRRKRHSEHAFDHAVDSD
# method description: Malachite green assay, human NTPDase3
# Format: biochemical
# run conditions: 2 μM compound; 100 µM ATP; COS-7 membrane preparation; read-out: % inhibition at 2 μM concentration, NTPDase3
readout kind: inhibition at 2 µM

[[record]]
compound = "Nc1c(S(=O)(=O)[O-])cc(Nc2cccc(F)c2C(=O)O)c2c1C(=O)c1ccccc1C2=O.[Na+] [Compound 35]"
recorded_result = "32%"

[[record]]
compound = "Nc1c(Br)cc(Nc2cccc(C(=O)O)c2)c2c1C(=O)c1ccccc1C2=O [Compound 52]"
recorded_result = "1%"

[[record]]
compound = "Nc1c(S(=O)(=O)[O-])cc(Nc2cccc(I)c2)c2c1C(=O)c1ccccc1C2=O.[Na+] [Compound 23]"
recorded_result = "2%"

[[record]]
compound = "CCc1cccc(Nc2cc(Br)c(N)c3c2C(=O)c2ccccc2C3=O)c1 [Compound 53]"
recorded_result = "-2%"

[[record]]
compound = "Nc1c(S(=O)(=O)O)cc(Nc2ccccc2)c2c1C(=O)c1ccccc1C2=O [Compound 14]"
recorded_result = "-10%"

[[record]]
compound = "Cc1cc(Nc2cccc(F)c2)c2c(c1N)C(=O)c1ccccc1C2=O [Compound 54]"
recorded_result = "-2%"

[[record]]
compound = "Nc1c(S(=O)(=O)O)cc(Nc2ccc3ccccc3c2)c2c1C(=O)c1ccccc1C2=O [Compound 18]"
recorded_result = "-9%"

[[record]]
compound = "Nc1c(S(=O)(=O)[O-])cc(Nc2cccc(Cl)c2Cl)c2c1C(=O)c1ccccc1C2=O.[Na+] [Compound 34]"
recorded_result = "-2%"

[[record]]
compound = "Nc1c(S(=O)(=O)O)cc(Nc2cccc(Oc3ccccc3)c2)c2c1C(=O)c1ccccc1C2=O [Compound 40]"
recorded_result = "18%"

[[record]]
compound = "Nc1c(S(=O)(=O)[O-])cc(Nc2cccc(Sc3ccccc3)c2)c2c1C(=O)c1ccccc1C2=O.[Na+] [Compound 41]"
recorded_result = "10%"

[[record]]
compound = "Nc1c(S(=O)(=O)[O-])cc(Nc2ccc(O)cc2F)c2c1C(=O)c1ccccc1C2=O.[Na+] [Compound 37]"
recorded_result = "-12%"

[[record]]
compound = "Cc1ccc2ccccc2c1Nc1cc(S(=O)(=O)O)c(N)c2c1C(=O)c1ccccc1C2=O [Compound 16]"
recorded_result = "-21%"

[[record]]
compound = "Cc1ccc(C)c(Sc2ccc(Nc3cc(S(=O)(=O)O)c(N)c4c3C(=O)c3ccccc3C4=O)cc2)c1 [Compound 50]"
recorded_result = "34%"

[[record]]
compound = "Nc1c(S(=O)(=O)O)cc(NCCc2ccccc2)c2c1C(=O)c1ccccc1C2=O [Compound 13]"
recorded_result = "-3%"

[[record]]
compound = "Nc1c(S(=O)(=O)[O-])cc(Nc2cccc(CO)c2)c2c1C(=O)c1ccccc1C2=O.[Na+] [Compound 28]"
recorded_result = "-9%"

[[record]]
compound = "Nc1c(S(=O)(=O)O)cc(Nc2cc3ccccc3c3ccccc23)c2c1C(=O)c1ccccc1C2=O [Compound 20]"
recorded_result = "-5%"

